- target.system: Human Thrombin (Homo sapiens, UniProt P00734)
- measurement.protocol: biochemical
- run.parameters: read-out: Kass Human Thrombin (converted)
Counter-ions that a name gives are not always drawn.
Recorded Kd values for a group of molecules are listed next.
readout.kind: Kd (nM)

[[record]]
molecule = "CCS(=O)(=O)N[C@H](Cc1ccccc1)C(=O)N1CCC[C@H]1C(=O)NCCc1ccc(C(=N)N)cc1"
units_text = "nM"
numeric_value = 76.9

[[record]]
molecule = "CCS(=O)(=O)N[C@H](CC1CCCCC1)C(=O)N1CCC[C@H]1C(=O)NCc1ccnc(N)c1"
units_text = "nM"
numeric_value = 417

[[record]]
molecule = "N=C(N)c1ccc(CNC(=O)[C@@H]2CCCN2C(=O)[C@H](NCC(=O)O)C2CCCCC2)cc1"
units_text = "nM"
numeric_value = 5

[[record]]
molecule = "N=C(N)c1ccc(CNC(=O)[C@@H]2CCCN2C(=O)[C@@H](CC2CCCCC2)NCC(=O)O)nn1"
units_text = "nM"
numeric_value = 2.94

[[record]]
molecule = "N=C(N)c1ccc(CNC(=O)[C@@H]2CCCN2C(=O)[C@@H](CC2CCCCC2)NCC(=O)O)c(F)c1"
units_text = "nM"
numeric_value = 0.714

[[record]]
molecule = "N=C(N)c1ccc(CNC(=O)CN(CCc2ccccc2)C(=O)CNCC(=O)O)cc1"
units_text = "nM"
numeric_value = 7140

[[record]]
molecule = "CCS(=O)(=O)N[C@H](CC1CCCCC1)C(=O)N1CCC[C@H]1C(=O)NCc1ccc(C(=N)N)cc1 [Example 80, EtSO2-D-Cha-Pro-4-NHCH2C6H4C(NH)NH2·HCl]"
units_text = "nM"
numeric_value = 0.588

[[record]]
molecule = "CCS(=O)(=O)N[C@H](Cc1ccccc1)C(=O)N1CCC[C@H]1C(=O)NCc1cccc(C(=N)N)c1"
units_text = "nM"
numeric_value = 1280

[[record]]
molecule = "O=C(O)CN[C@H](CC1CCCCC1)C(=O)N1CCC[C@H]1C(=O)NCC1=CCNCC1"
units_text = "nM"
numeric_value = 1670

[[record]]
molecule = "CCS(=O)(=O)N[C@H](Cc1ccccc1)C(=O)N1CCC[C@H]1C(=O)NCCCc1cccc(C(=N)N)c1"
units_text = "nM"
numeric_value = 14300

[[record]]
molecule = "Nc1cc(CNC(=O)[C@@H]2CCCN2C(=O)[C@@H](CC2CCCCC2)NCC(=O)O)ccn1"
units_text = "nM"
numeric_value = 35.7

[[record]]
molecule = "CCS(=O)(=O)N[C@H](Cc1ccccc1)C(=O)N1CCC[C@H]1C(=O)NCc1ccc(NC(=N)N)cc1"
units_text = "nM"
numeric_value = 1540

[[record]]
molecule = "Nc1ccc(CNC(=O)[C@@H]2CCCN2C(=O)[C@@H](CC2CCCCC2)NCC(=O)O)cc1 [Example 62, HO2CCH2-D-Cha-Pro-4-NHCH2C6H4NH2·HCl]"
units_text = "nM"
numeric_value = 132

[[record]]
molecule = "N=C(N)c1ccc(CNC(=O)[C@@H]2C[C@@H]3CCCC[C@@H]3N2C(=O)[C@H]2CCCCN2)cc1 [Example 20, D-hPro-Ohi-p-NHCH2C6H4C(NH)NH2·3HCl]"
units_text = "nM"
numeric_value = 100

